subject_of_test: AjKissR2 (Apostichopus japonicus)
Sequence (A0A5B7LIE4 1-327): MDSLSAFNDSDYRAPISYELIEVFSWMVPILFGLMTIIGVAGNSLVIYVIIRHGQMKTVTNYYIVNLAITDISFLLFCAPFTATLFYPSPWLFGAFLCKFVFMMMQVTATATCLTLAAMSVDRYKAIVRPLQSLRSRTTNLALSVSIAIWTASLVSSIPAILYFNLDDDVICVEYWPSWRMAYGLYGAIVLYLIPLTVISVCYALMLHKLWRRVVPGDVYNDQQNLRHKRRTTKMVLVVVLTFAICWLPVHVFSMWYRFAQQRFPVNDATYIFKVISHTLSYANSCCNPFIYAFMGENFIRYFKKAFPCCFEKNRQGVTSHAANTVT
assay_explanation: cell-based
Type: cell-based
measurement_context: HEK293, Fura-2/AM; vertebrate kisspeptins and FITC-AjKiss1a at 1.0 μM
readout_name: Potency in triggering intracellular Ca2+ mobilization via AjKissR2 (in words)

substance	observed
AHYRTLPF-NH2 [AjKiss1a-10, truncated peptide of AjKiss1a]	failed to activate
GRQPNRNAHYRTLPF-NH2 [AjKiss1a-15, truncated peptide of AjKiss1a]	failed to activate
